Recorded values, source patent US5776929A.

molecular target: gastrin receptor (Cavia porcellus, UniProt H0VZC5); construct: stomach was extracted from each animal immediately, from which gastric glands were prepared; from tissue; host or cells: gastric (fundic) glands of male Hartley guinea pigs; test: Gastrin receptor antagonism, displacement of 125I-labeled gastrin, gastric (fundic) gland cells; assay type: binding, guinea pig (male Hartley); settings: guinea pig gastric glands, 125I-gastrin 0.2 nM, 30 min, 25 °C; read-out: Receptor Gastrin (IC50)
experimental.readout: IC50 (nM)

# molecule, IC50 (nM)
data = [
    ("Cc1cccc(NC(=O)NC2C(=O)N(CC(=O)C3CC3)c3ccccc3N(CC(=O)C3CC3)C2=O)c1", 5),
    ("COC(=O)CCCNC(=O)OCc1cccc(NC(=O)NC2C(=O)N(CC(=O)N3CCCC3)c3ccccc3N(CC(=O)N3CCCC3)C2=O)c1", 8),
    ("O=C(O)CCCNC(=O)OCc1cccc(NC(=O)NC2C(=O)N(CC(=O)c3ccco3)c3ccccc3N(CC(=O)c3ccco3)C2=O)c1 [Compound 11f]", 6),
]

---

molecular target: CCK-A receptor (Mus musculus, UniProt O08786); construct: crude membrane specimen from mouse pancreas; from tissue; host or cells: pancreas of male ddY mice, crude membranes; assay: CCK-A receptor antagonism, displacement of [3H]CCK-8, pancreas crude membrane; assay type: binding, mouse (male ddY); conditions: mouse pancreas membrane, [3H]CCK-8 1 nM, 90 min, 25 °C; read-out: Receptor CCK-A (IC50)
Sequence (O08786 whole entry): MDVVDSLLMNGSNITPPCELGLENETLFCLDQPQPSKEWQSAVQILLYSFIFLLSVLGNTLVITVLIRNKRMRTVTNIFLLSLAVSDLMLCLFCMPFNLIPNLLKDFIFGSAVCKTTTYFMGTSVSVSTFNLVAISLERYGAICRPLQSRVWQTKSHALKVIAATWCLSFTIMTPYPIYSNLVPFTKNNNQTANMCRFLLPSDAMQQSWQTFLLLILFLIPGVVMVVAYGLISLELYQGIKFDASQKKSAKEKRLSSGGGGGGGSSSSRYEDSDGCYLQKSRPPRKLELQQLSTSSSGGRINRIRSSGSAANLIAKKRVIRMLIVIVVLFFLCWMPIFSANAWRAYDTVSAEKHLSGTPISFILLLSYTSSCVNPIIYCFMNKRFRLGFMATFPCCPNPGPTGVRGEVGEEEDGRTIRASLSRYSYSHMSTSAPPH
experimental.readout: IC50 (nM)

# cpd.smiles, experimental.readout, units.label, number
records = [
    ("O=C(O)CSc1cccc(NC(=O)NC2C(=O)N(CC(=O)C3CC3)c3ccccc3N(CC(=O)C3CC3)C2=O)c1", "IC50", "nM", 500),
]

(P) Cc1cccc(NC(=O)NC2C(=O)N(Cc3cccc(N)c3)c3ccccc3N(Cc3cccc(N)c3)C2=O)c1
(Q) COC(=O)CCCNC(=O)OCc1cccc(NC(=O)NC2C(=O)N(CC3CC3)c3ccccc3N(CC3CC3)C2=O)c1
// query Hi, I'm comparing two records. Which one has the lower IC50, P or Q ? Lab log: write the label of the selected item as the result.
// result P
(P: 760 nM, Q: 3900 nM)

(A) Cc1cccc(NC(=O)NC2C(=O)N(CC3CC3)c3ccccc3N(CC3CC3)C2=O)c1
(B) O=C(Nc1cccc(-c2nc(=O)o[nH]2)c1)NC1C(=O)N(CC(=O)C2CC2)c2ccccc2N(CC(=O)C2CC2)C1=O
// query Hi, I'm comparing two records. Which one has the lower IC50, A or B ? Lab log: write the label of the selected item as the result.
// result B

(1) CC(C)S(=O)(=O)NC(=O)c1cccc(NC(=O)NC2C(=O)N(CC(=O)C3CC3)c3ccccc3N(CC(=O)C3CC3)C2=O)c1
(2) CCOC(=O)COc1cccc(NC(=O)NC2C(=O)N(CC(=O)C3CC3)c3ccccc3N(CC(=O)C3CC3)C2=O)c1
// query For the two items 1 and 2 , which reports the higher IC50 value? Lab log: write the label of the selected item as the result.
// result 1

---

Target: CCK-B receptor (Mus musculus, UniProt P56481)
Construct: crude membrane specimen from mouse cerebral cortex; from tissue; host or cells: cerebral cortex of male ddY mice, crude membranes
Sequence (P56481 1-453): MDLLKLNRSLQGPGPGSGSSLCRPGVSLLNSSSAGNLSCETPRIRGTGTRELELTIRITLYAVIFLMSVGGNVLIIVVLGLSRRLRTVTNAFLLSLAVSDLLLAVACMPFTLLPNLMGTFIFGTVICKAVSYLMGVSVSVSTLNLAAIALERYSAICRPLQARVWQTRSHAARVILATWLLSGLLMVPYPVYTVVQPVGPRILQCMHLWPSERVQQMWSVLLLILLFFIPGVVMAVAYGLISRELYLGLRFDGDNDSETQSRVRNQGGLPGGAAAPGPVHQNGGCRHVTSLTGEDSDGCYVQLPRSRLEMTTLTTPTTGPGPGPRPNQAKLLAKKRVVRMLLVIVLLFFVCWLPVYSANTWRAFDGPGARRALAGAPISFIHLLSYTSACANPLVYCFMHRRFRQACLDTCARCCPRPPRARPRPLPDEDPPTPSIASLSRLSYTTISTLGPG
Assay: CCK-B receptor antagonism, displacement of [3H]CCK-8, cerebral cortex crude membrane
Type: binding, mouse (male ddY)
Settings: mouse cerebral cortex membrane, [3H]CCK-8 1 nM, 90 min, 25 °C; read-out: Receptor CCK-B (IC50)
experimental.readout: IC50 (nM)

(1) COC(=O)CCCNC(=O)OCc1cccc(NC(=O)NC2C(=O)N(CC(=O)N3CCCC3)c3ccccc3N(CC(=O)N3CCCC3)C2=O)c1
(2) Cc1cccc(NC(=O)NC2C(=O)N(CC(=O)C3CC3)c3ccccc3N(CC(=O)C3CC3)C2=O)c1
(3) COC(=O)CCCNC(=O)OCc1cccc(NC(=O)NC2C(=O)N(CC(=O)c3cccs3)c3ccccc3N(CC(=O)c3cccs3)C2=O)c1
// query Put the items above in order of decreasing IC50. Answer by naming the labels in the order asked.
// result 1, 2, 3

---

target: CCK-A receptor (Mus musculus); construct: crude membrane specimen from mouse pancreas; from tissue; host or cells: pancreas of male ddY mice, crude membranes; assay: CCK-A receptor antagonism, displacement of [3H]CCK-8, pancreas crude membrane; assay type: binding, mouse (male ddY); conditions: mouse pancreas membrane, [3H]CCK-8 1 nM, 90 min, 25 °C; read-out: Receptor CCK-A (IC50)
experimental.readout: IC50 (nM)

For orientation, consider the following solved cases.
# compound, target.or.system, units.label, IC50
data = [
    ("CCOC(=O)c1cccc(NC(=O)NC2C(=O)N(CC(=O)C3CC3)c3ccccc3N(CC(=O)C3CC3)C2=O)c1 [Compound 17-i]", "CCK-A receptor (Mus musculus)", "nM", 1350),
    ("COC(=O)CCCNC(=O)OCc1cccc(NC(=O)NC2C(=O)N(CC(=O)c3ccco3)c3ccccc3N(CC(=O)c3ccco3)C2=O)c1 [Compound 9f]", "CCK-A receptor (Mus musculus)", "nM", 1400),
]

(I) Cc1cccc(NC(=O)NC2C(=O)N(CC(=O)C3CC3)c3ccccc3N(CC(=O)C3CC3)C2=O)c1 [Compound 8h]
(II) O=C(O)CCCNC(=O)OCc1cccc(NC(=O)NC2C(=O)N(CC3CC3)c3ccccc3N(CC3CC3)C2=O)c1 [Compound 11o]
(III) O=C(O)Cc1cccc(NC(=O)NC2C(=O)N(CC(=O)C3CC3)c3ccccc3N(CC(=O)C3CC3)C2=O)c1 [Compound 17-xiii]
(IV) O=C(Nc1cccc(-c2nnn[nH]2)c1)NC1C(=O)N(CC(=O)C2CC2)c2ccccc2N(CC(=O)C2CC2)C1=O [Compound 17-iv]
// query Ranking field: IC50; order: falling. Answer by naming the labels in the order asked.
// result III, IV, II, I
(III: 4800 nM, IV: 2900 nM, II: 1850 nM, I: 380 nM)

---

target: CCK-B receptor (Mus musculus, UniProt P56481); construct: crude membrane specimen from mouse cerebral cortex; from tissue; host or cells: cerebral cortex of male ddY mice, crude membranes; experiment: CCK-B receptor antagonism, displacement of [3H]CCK-8, cerebral cortex crude membrane; assay type: binding, mouse (male ddY); details: mouse cerebral cortex membrane, [3H]CCK-8 1 nM, 90 min, 25 °C; read-out: Receptor CCK-B (IC50)
pIC50: −log10 of the molar value.
experimental.readout: pIC50

For orientation, consider the following solved cases.
# compound, number
measured = [
    ("COC(=O)CCCNC(=O)OCc1cccc(NC(=O)NC2C(=O)N(CC(=O)c3ccccc3C)c3ccccc3N(CC(=O)c3ccccc3C)C2=O)c1 [Compound 9d]", 7.96),
    ("COC(=O)CCCNC(=O)OCc1cccc(NC(=O)NC2C(=O)N(CC(=O)c3ccco3)c3ccccc3N(CC(=O)c3ccco3)C2=O)c1 [Compound 9f]", 7.21),
]

(1) Cc1cccc(NC(=O)NC2C(=O)N(CC3CC3)c3ccccc3N(CC3CC3)C2=O)c1 [Compound 8o]
(2) COC(=O)CCCNC(=O)OCc1cccc(NC(=O)NC2C(=O)N(CC(=O)C3CCCC3)c3ccccc3N(CC(=O)C3CCCC3)C2=O)c1 [Compound 9i]
// query Hi, I'm comparing two records. Which one has the lower pIC50, 1 or 2 ? Lab log: write the label of the selected item as the result.
// result 1
(1: 7.64, 2: 8.70)

---

Target: gastrin receptor (Cavia porcellus, UniProt H0VZC5)
Construct: stomach was extracted from each animal immediately, from which gastric glands were prepared; from tissue; host or cells: gastric (fundic) glands of male Hartley guinea pigs
Sequence (H0VZC5 1-426): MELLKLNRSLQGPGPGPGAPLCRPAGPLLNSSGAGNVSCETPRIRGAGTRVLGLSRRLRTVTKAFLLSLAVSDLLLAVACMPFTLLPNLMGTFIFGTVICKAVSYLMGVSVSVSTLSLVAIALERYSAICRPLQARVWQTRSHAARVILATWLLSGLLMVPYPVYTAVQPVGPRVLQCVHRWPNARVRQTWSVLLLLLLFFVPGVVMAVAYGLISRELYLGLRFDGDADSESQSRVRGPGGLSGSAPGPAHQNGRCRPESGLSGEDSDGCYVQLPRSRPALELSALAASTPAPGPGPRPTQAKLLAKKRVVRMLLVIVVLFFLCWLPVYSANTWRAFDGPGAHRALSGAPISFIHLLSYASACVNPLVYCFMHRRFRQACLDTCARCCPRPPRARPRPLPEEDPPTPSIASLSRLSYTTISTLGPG
Assay: Gastrin receptor antagonism, displacement of 125I-labeled gastrin, gastric (fundic) gland cells
Format: binding, guinea pig (male Hartley)
experimental.readout: pIC50
Field pIC50 (float): negative decimal logarithm of the concentration in molar.

// query # pIC50 lookup, item COC(=O)CCCNC(=O)OCc1cccc(NC(=O)NC2C(=O)N(CC(=O)N3CCSC3)c3ccccc3N(CC(=O)N3CCSC3)C2=O)c1
// result 7.85
